Catalogue of LC retention time values
assay: RP, Waters XBridge C18, 50 × 2.1 mm, 3.5 µm, 30 °C, 0.2 mL/min, estimated dead time 0.55 min; A: water + 0.1% formic acid, pH 3; B: methanol + 0.1% formic acid, pH 3; gradient (min/%B) 0/10 4/50 17/95 25/95 25.1/10 30/10; settings: stereoisomer not certain
State just the number; it will be interpreted in min.

Known LC retention time results, listed for orientation:
CCC1OC(=O)C(C)C(OC2CC(C)(OC)C(O)C(C)O2)C(C)C(OC2OC(C)CC(N(C)C)C2O)C(C)(O)CC(C)C(=NOCOCCOC)C(C)C(O)C1(C)O (stereo not drawn); 10.1
CNC(=C[N+](=O)[O-])NCCSCc1ccc(CN(C)C)o1; 1.9
CON=C(C(=O)OC)c1ccccc1COc1ccccc1C; 12.5
COCCN(C(=O)C(=O)O)c1c(C)cccc1C; 6.6
O=C1Nc2ccc(Cl)cc2C(c2ccccc2)=NC1O (stereo not drawn); 9

The record that follows has no LC retention time shown yet.
Note to self: LC retention time recorded for COc1cc(OC)nc(NS(=O)(=O)c2ccc(NC(C)=O)cc2)n1 was 6.3
